From: paper PMC6384730

MEASUREMENT_DESCRIPTION: MTT cell viability (cytotoxicity) assay on L929 cells
Format: cell-based, mouse
ASSAY_CONDITIONS: mouse, L929 mouse fibroblast cells, 125.00 µg/mL, 24 h, % of untreated cells
For each record, check the reported viability at 24 h, 125 µg/mL: if it is below 70% write condition met, else write condition not met.

Challenge: API: query returns whether the molecule falls strictly under 70% in viability at 24 h, 125 µg/mL. Query: Cc1nc[nH]c1C(=O)NNC(=S)Nc1c(C(C)C)cccc1C(C)C [Compound 22]
Response given: condition not met

Challenge: API: query returns whether the molecule falls strictly under 70% in viability at 24 h, 125 µg/mL. Query: CCOc1ccc(NC(=S)NNC(=O)c2[nH]cnc2C)cc1 [Compound 21]
Response given: condition not met

Challenge: API: query returns whether the molecule falls strictly under 70% in viability at 24 h, 125 µg/mL. Query: Cc1ccccc1NC(=S)NNC(=O)c1[nH]cnc1C [Compound 16]
Response given: condition not met

Challenge: API: query returns whether the molecule falls strictly under 70% in viability at 24 h, 125 µg/mL. Query: Cc1nc[nH]c1C(=O)NNC(=S)Nc1cccc(F)c1 [Compound 11]
Response given: condition met

Challenge: API: query returns whether the molecule falls strictly under 70% in viability at 24 h, 125 µg/mL. Query: Cc1nc[nH]c1C(=O)NNC(=S)Nc1cc(F)ccc1F [Compound 15]
Response given: condition not met

Challenge: API: query returns whether the molecule falls strictly under 70% in viability at 24 h, 125 µg/mL. Query: Cc1nc[nH]c1C(=O)NNC(=S)Nc1ccccc1[N+](=O)[O-] [Compound 2]
Response given: condition not met

Challenge: API: query returns whether the molecule falls strictly under 70% in viability at 24 h, 125 µg/mL. Query: CCN(CC)c1ccc(NC(=S)NNC(=O)c2[nH]cnc2C)cc1 [Compound 20]
Response given: condition met

Challenge: API: query returns whether the molecule falls strictly under 70% in viability at 24 h, 125 µg/mL. Query: Cc1ccc(NC(=S)NNC(=O)c2[nH]cnc2C)cc1 [Compound 18]
Response given: condition met

Challenge: API: query returns whether the molecule falls strictly under 70% in viability at 24 h, 125 µg/mL. Query: Cc1cccc(NC(=S)NNC(=O)c2[nH]cnc2C)c1 [Compound 17]
Response given: condition met

###

Assign viability at 24 h, 250 µg/mL to each entry below.
MEASUREMENT_DESCRIPTION: MTT cell viability (cytotoxicity) assay on L929 cells
Type: cell-based, mouse
ASSAY_CONDITIONS: mouse, L929 mouse fibroblast cells, 250.00 µg/mL, 24 h, % of untreated cells
Enter your answer as a number in %; do not include the unit.

Challenge: Indicate the recorded viability at 24 h, 250 µg/mL value for this compound: Cc1nc[nH]c1C(=O)NNC(=S)Nc1c(C(C)C)cccc1C(C)C [Compound 22]
Response given: 68.2

Challenge: Indicate the recorded viability at 24 h, 250 µg/mL value for this compound: COc1ccccc1NC(=S)NNC(=O)c1[nH]cnc1C [Compound 5]
Response given: 63.1

Challenge: Indicate the recorded viability at 24 h, 250 µg/mL value for this compound: Cc1nc[nH]c1C(=O)NNC(=S)Nc1cccc(Cl)c1 [Compound 10]
Response given: 61.8

Challenge: Indicate the recorded viability at 24 h, 250 µg/mL value for this compound: Cc1nc[nH]c1C(=O)NNC(=S)Nc1ccccc1[N+](=O)[O-] [Compound 2]
Response given: 53.4

Challenge: Indicate the recorded viability at 24 h, 250 µg/mL value for this compound: COc1cccc(NC(=S)NNC(=O)c2[nH]cnc2C)c1 [Compound 6]
Response given: 67.3

Challenge: Indicate the recorded viability at 24 h, 250 µg/mL value for this compound: Cc1nc[nH]c1C(=O)NNC(=S)Nc1cccc([N+](=O)[O-])c1 [Compound 3]
Response given: 55.8

Challenge: Indicate the recorded viability at 24 h, 250 µg/mL value for this compound: Cc1nc[nH]c1C(=O)NNC(=S)Nc1cc(F)ccc1F [Compound 15]
Response given: 65.2

Challenge: Indicate the recorded viability at 24 h, 250 µg/mL value for this compound: Cc1nc[nH]c1C(=O)NNC(=S)NCc1ccccc1 [Compound 8]
Response given: 53.3

Challenge: Indicate the recorded viability at 24 h, 250 µg/mL value for this compound: Cc1ccccc1NC(=S)NNC(=O)c1[nH]cnc1C [Compound 16]
Response given: 71.5

Challenge: Indicate the recorded viability at 24 h, 250 µg/mL value for this compound: CC(=O)c1cccc(NC(=S)NNC(=O)c2[nH]cnc2C)c1 [Compound 12]
Response given: 76.8

Challenge: Indicate the recorded viability at 24 h, 250 µg/mL value for this compound: Cc1ccc(NC(=S)NNC(=O)c2[nH]cnc2C)cc1Cl [Compound 14]
Response given: 21.1

Challenge: Indicate the recorded viability at 24 h, 250 µg/mL value for this compound: COc1ccc(NC(=S)NNC(=O)c2nc[nH]c2C)cc1 [Compound 7]
Response given: 70.7

Challenge: Indicate the recorded viability at 24 h, 250 µg/mL value for this compound: COc1ccc(NC(=S)NNC(=O)c2[nH]cnc2C)cc1OC [Compound 13]
Response given: 94.2

Challenge: Indicate the recorded viability at 24 h, 250 µg/mL value for this compound: Cc1nc[nH]c1C(=O)NNC(=S)Nc1ccc([N+](=O)[O-])cc1 [Compound 4]
Response given: 66.9

Challenge: Indicate the recorded viability at 24 h, 250 µg/mL value for this compound: Cc1nc[nH]c1C(=O)NNC(=S)Nc1ccc(N(C)C)cc1 [Compound 19]
Response given: 60.8

Challenge: Indicate the recorded viability at 24 h, 250 µg/mL value for this compound: Cc1ccc(NC(=S)NNC(=O)c2[nH]cnc2C)cc1 [Compound 18]
Response given: 60.4

Challenge: Indicate the recorded viability at 24 h, 250 µg/mL value for this compound: CCN(CC)c1ccc(NC(=S)NNC(=O)c2[nH]cnc2C)cc1 [Compound 20]
Response given: 53.4

Challenge: Indicate the recorded viability at 24 h, 250 µg/mL value for this compound: Cc1nc[nH]c1C(=O)NNC(=S)Nc1cccc(F)c1 [Compound 11]
Response given: 57.8

Challenge: Indicate the recorded viability at 24 h, 250 µg/mL value for this compound: CCOc1ccc(NC(=S)NNC(=O)c2[nH]cnc2C)cc1 [Compound 21]
Response given: 82.3

Challenge: Indicate the recorded viability at 24 h, 250 µg/mL value for this compound: Cc1cccc(NC(=S)NNC(=O)c2[nH]cnc2C)c1 [Compound 17]
Response given: 50
